Give measured log10 CLint scaled for each item. Keep answers brief.
- assay-method-text: Human liver microsome stability / intrinsic clearance
- Format: in vitro ADME
- condition-notes: human, liver microsomes
Kindly note that the scale is log10 and the underlying CLint scaled is in mL/min/kg.

## Input Item `Cc1nc(CN2CCC(OCc3cccc(C(F)(F)F)c3)CC2)c2ccccn12` has what recorded log10 CLint scaled?
## Output 1.93

## Input I have this compound here, `COc1ccc(CN2CCC[C@H](OCc3ccc(F)c(F)c3)C2)cc1F` , and I need its recorded log10 CLint scaled.
## Output 2.43

## Input Quick one: log10 CLint scaled of `Fc1cc(COC2CCN(Cc3ncc4ccccn34)CC2)ccc1Cl` ?
## Output 2.33

## Input Which log10 CLint scaled is listed for `FC(F)(F)c1cccc(COC2CCN(Cc3ccc4[nH]cnc4c3)CC2)c1` ?
## Output 1.52

## Input Which log10 CLint scaled reading was recorded for the compound `Fc1ccc(CO[C@H]2CCCN(Cc3cn4ccccc4n3)C2)cc1F` ?
## Output 2.84

## Input Need log10 CLint scaled of Cc1c(Cl)cccc1NC(=O)CN1CCC(OCc2ccc(F)c(F)c2)CC1 [Compound 11a] , thanks.
## Output 2.16

## Input Entry `Fc1ccc(COC2CCN(Cc3cc4ccc(Cl)cc4[nH]3)CC2)cc1F` : reported log10 CLint scaled = ?
## Output 1.37

## Input Data request, read-out log10 CLint scaled, for `Fc1cccc(COC2CCN(Cc3ncn4ccccc34)CC2)c1`
## Output 2.53

## Input # lookup: log10 CLint scaled of `Fc1cc(COC2CCN(Cc3ccc4[nH]cnc4c3)CC2)ccc1Cl`
## Output 1.68

## Input Consider the compound shown here: Cc1cc(NC(=O)CN2CCC(OCc3ccc(F)c(F)c3)CC2)ccc1F [Compound 11d] What is its recorded log10 CLint scaled?
## Output 1.69

## Input What log10 CLint scaled value was documented for this compound, `Cn1ncc2cc(CN3CCC(OCc4ccc(Cl)c(F)c4)CC3)ccc21` ?
## Output 1.63
